target: CYP3A4 (Homo sapiens, UniProt P08684); experiment: Direct CYP inhibition assay using pooled HLM; settings: read-out: IC50 CYP3A4 (MDZ), direct inhibition, substrate MDZ, 95% confidence intervals in parentheses
Sequence (P08684 whole entry): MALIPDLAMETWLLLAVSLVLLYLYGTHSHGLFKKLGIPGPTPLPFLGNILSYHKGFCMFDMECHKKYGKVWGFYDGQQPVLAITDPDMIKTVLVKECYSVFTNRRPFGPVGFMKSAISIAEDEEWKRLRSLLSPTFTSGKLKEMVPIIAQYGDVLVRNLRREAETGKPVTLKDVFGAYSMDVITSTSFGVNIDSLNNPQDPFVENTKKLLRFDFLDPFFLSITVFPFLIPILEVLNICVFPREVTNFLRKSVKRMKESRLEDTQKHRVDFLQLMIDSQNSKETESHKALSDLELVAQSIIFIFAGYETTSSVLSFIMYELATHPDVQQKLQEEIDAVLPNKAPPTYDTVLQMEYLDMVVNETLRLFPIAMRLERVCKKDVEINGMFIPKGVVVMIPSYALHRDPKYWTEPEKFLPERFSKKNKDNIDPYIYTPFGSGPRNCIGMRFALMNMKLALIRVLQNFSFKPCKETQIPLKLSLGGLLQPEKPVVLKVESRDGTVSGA
pIC50: −log10 of the molar value.
Readout Name: pIC50

- COc1ccc2cc3[n+](cc2c1OC)CCc1cc(O)c(O)cc1-3 [DMB, demethyleneberberine]: 4.18

###

Target: CYP2C8 (Homo sapiens)
Sequence (P10632 1-490): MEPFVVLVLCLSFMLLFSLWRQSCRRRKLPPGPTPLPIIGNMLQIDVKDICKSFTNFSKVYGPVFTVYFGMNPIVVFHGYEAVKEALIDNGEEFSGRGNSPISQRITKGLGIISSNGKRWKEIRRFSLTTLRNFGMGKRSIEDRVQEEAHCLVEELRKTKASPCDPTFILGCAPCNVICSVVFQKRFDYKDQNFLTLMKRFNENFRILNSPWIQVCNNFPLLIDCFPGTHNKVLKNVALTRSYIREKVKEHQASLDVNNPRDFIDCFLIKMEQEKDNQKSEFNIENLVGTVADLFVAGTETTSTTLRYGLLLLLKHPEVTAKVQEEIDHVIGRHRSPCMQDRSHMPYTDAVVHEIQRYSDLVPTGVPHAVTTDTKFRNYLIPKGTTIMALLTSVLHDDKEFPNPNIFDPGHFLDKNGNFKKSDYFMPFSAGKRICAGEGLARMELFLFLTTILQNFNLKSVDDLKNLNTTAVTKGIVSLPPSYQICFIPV
Test: Direct CYP inhibition assay using pooled HLM
pIC50: −log10 of the molar value.
Readout Name: pIC50

* COc1cc2c(cc1O)CC[n+]1cc3c(OC)c(OC)ccc3cc1-2 | 4.59
* COc1ccc2cc3[n+](cc2c1O)CCc1cc2c(cc1-3)OCO2 | 4.14

###

Target: CYP2B6 (Homo sapiens)
Sequence (P20813 1-491): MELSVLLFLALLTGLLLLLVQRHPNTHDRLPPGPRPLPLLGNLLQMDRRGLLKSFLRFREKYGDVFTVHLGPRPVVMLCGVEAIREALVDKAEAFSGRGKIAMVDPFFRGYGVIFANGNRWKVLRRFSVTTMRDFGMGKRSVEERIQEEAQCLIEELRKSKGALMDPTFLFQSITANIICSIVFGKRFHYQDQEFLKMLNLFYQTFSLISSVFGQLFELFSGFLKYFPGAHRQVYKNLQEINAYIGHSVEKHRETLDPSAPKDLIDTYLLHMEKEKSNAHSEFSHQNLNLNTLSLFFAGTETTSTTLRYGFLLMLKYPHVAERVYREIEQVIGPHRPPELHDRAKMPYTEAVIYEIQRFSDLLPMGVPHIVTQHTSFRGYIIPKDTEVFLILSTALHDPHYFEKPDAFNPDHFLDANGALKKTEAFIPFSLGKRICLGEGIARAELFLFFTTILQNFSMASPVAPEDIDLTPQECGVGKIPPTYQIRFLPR
Assay: Direct CYP inhibition assay using pooled HLM
pIC50: −log10 of the molar value.
Readout Name: pIC50

- COc1ccc2cc3[n+](cc2c1O)CCc1cc2c(cc1-3)OCO2: 4.02
- COc1cc2c(cc1O)CC[n+]1cc3c(OC)c(OC)ccc3cc1-2: < 4.00
- COc1c(O)ccc2cc3[n+](cc12)CCc1cc2c(cc1-3)OCO2: < 4.00

###

target: CYP2E1 (Homo sapiens); assay: Direct CYP inhibition assay using pooled HLM
Sequence (P05181 whole entry): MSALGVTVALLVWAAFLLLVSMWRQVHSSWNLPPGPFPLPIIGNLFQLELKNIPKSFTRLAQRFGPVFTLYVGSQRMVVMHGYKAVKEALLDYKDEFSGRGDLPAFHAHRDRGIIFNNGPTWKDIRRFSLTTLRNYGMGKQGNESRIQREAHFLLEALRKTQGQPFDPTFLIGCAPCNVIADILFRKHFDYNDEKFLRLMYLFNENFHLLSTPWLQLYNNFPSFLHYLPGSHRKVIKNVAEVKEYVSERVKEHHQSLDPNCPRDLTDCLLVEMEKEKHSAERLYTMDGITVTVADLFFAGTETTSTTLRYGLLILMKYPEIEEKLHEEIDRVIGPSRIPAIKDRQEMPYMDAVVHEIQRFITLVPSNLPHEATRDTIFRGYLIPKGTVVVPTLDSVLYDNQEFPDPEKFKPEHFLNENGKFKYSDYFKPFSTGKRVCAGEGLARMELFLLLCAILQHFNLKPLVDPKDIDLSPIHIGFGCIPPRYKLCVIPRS
Items are presented alongside their recorded IC50.
Readout Name: IC50 (µM)

• COc1ccc2cc3[n+](cc2c1O)CCc1cc2c(cc1-3)OCO2 = 34
• COc1c(O)ccc2cc3[n+](cc12)CCc1cc2c(cc1-3)OCO2 = 32
• COc1cc2c(cc1O)CC[n+]1cc3c(OC)c(OC)ccc3cc1-2 = 11
